Each entry below carries its recorded t½.
system: T1, cynomolgus monkey IL-33 expressed with a C-terminal hexahistidine tag (cynomolgus monkey)
T1 construct: also called MfIL-33-6His; Mf-IL-33-6His
T1 chain: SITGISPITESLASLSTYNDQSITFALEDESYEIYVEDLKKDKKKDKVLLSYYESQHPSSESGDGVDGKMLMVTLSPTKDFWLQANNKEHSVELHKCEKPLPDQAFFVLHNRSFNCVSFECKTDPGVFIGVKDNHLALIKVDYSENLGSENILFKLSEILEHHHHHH
assay remarks: SPR 37C, pH6.0 chase, mAb captured
assay metric: t½ (min)

• H4H9640P (antibody, human IgG4, V domains shown, Human IgG4 Fc (H4H)) VH: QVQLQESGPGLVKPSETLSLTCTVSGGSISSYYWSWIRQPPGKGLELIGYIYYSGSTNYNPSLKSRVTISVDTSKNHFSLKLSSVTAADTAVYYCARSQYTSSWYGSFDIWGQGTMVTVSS VL: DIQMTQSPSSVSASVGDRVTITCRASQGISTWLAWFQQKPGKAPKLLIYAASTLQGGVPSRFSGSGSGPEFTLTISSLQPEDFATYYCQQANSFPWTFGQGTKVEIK = 5
• H1M9559N (antibody, mouse IgG1, V domains shown, Human variable domains, mouse IgG1 Fc (H1M)) VH: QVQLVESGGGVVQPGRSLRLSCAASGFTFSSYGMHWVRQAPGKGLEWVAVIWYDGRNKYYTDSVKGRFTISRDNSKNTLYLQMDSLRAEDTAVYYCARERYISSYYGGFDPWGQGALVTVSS VL: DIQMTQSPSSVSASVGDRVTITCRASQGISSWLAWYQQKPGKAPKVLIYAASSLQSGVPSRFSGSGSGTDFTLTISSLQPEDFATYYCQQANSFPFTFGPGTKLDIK = 4
